assayNotes: AUC (24 hrs) in Beagle dog at 0.125 mg/kg, iv or 0.625 mg/kg, po by LC-MS/MS method
Format: ADME, organism-based, Canis lupus familiaris
conditionDetails: in vivo
reportedMetric: AUC at 24 h (ng·h/mL)
Hi! Could you send only the number? It should be in ng·h/mL, unit omitted.

Query (compound): C[C@H]1Cc2c(nnn2-c2ncc(F)cn2)CN1C(=O)c1cccc(C(F)(F)F)c1F ; field requested: AUC at 24 h
3040

* * *

assayNotes: Half life in Beagle dog at 0.125 mg/kg, iv by LC-MS/MS method
Assay type: ADME, organism-based, Canis lupus familiaris
conditionDetails: in vivo
reportedMetric: half-life (h)
Hi! Could you send only the number? It should be in h, unit omitted.

Query (compound): C[C@H]1Cc2c(nnn2-c2ncc(F)cn2)CN1C(=O)c1cccc(C(F)(F)F)c1F ; field requested: half-life
8.8

* * *

assayNotes: Cmax in Beagle dog at 0.125 mg/kg, iv or 0.625 mg/kg, po by LC-MS/MS method
Format: ADME, organism-based, Canis lupus familiaris
conditionDetails: in vivo
reportedMetric: Cmax (ng/mL)
Hi! Could you send only the number? It should be in ng/mL, unit omitted.

Query (molecule): C[C@H]1Cc2c(nnn2-c2ncc(F)cn2)CN1C(=O)c1cccc(C(F)(F)F)c1F ; field requested: Cmax
305

* * *

assayNotes: Cmax in rat at 250 mg/kg, po for 4 days
Format: ADME, organism-based
Parameters: dose 250 mg/kg, route oral
conditionDetails: in vivo
reportedMetric: Cmax (ng/mL)
Hi! Could you send only the number? It should be in ng/mL, unit omitted.

Query (molecule): C[C@H]1Cc2c(nnn2-c2ncc(F)cn2)CN1C(=O)c1cccc(C(F)(F)F)c1F ; field requested: Cmax
9260

* * *

assayNotes: Clearance in Sprague-Dawley rat at 1 mg/kg, iv or 5 mg/kg, po by LC-MS/MS method
Assay type: ADME, organism-based
conditionDetails: in vivo
reportedMetric: clearance (L/h/kg)
Hi! Could you send only the number? It should be in L/h/kg, unit omitted.

Query (compound): C[C@H]1Cc2c(nnn2-c2ncc(F)cn2)CN1C(=O)c1ccnc(C(F)(F)F)c1F [ZANVIPIXANT] ; field requested: clearance
0.222

* * *

assayNotes: Cmax in Sprague-Dawley rat at 1 mg/kg, iv or 5 mg/kg, po by LC-MS/MS method
Type: ADME, organism-based
conditionDetails: in vivo
reportedMetric: Cmax (ng/mL)
Hi! Could you send only the number? It should be in ng/mL, unit omitted.

Query (molecule): C[C@H]1Cc2c(nnn2-c2ncc(F)cn2)CN1C(=O)c1ccnc(C(F)(F)F)c1F [ZANVIPIXANT] ; field requested: Cmax
1750

* * *

assayNotes: Clearance in Beagle dog at […], iv or 1.25 mg/kg, po by LC-MS/MS method
Type: ADME, organism-based, Canis lupus familiaris
conditionDetails: in vivo
reportedMetric: clearance (mL/min/kg)
Hi! Could you send only the number? It should be in mL/min/kg, unit omitted.

Query (molecule): C[C@H]1Cc2c(nnn2-c2ncc(F)cn2)CN1C(=O)c1ccnc(C(F)(F)F)c1F ; field requested: clearance
0.8

* * *

assayNotes: Volume of distribution at steady state in Sprague-Dawley rat at 1 mg/kg, iv or 5 mg/kg, po by LC-MS/MS method
Assay type: ADME, organism-based
conditionDetails: in vivo, read-out: Vdss
reportedMetric: Vd (L/kg)
Hi! Could you send only the number? It should be in L/kg, unit omitted.

Query (compound): C[C@H]1Cc2c(nnn2-c2ncc(F)cn2)CN1C(=O)c1ccnc(C(F)(F)F)c1F ; field requested: Vd
1.7
